- Assay System: human prostate specific membrane antigen (PSMA), full-length, on cells (human, UniProt Q04609 1-750)
- Sequence (Q04609 whole entry): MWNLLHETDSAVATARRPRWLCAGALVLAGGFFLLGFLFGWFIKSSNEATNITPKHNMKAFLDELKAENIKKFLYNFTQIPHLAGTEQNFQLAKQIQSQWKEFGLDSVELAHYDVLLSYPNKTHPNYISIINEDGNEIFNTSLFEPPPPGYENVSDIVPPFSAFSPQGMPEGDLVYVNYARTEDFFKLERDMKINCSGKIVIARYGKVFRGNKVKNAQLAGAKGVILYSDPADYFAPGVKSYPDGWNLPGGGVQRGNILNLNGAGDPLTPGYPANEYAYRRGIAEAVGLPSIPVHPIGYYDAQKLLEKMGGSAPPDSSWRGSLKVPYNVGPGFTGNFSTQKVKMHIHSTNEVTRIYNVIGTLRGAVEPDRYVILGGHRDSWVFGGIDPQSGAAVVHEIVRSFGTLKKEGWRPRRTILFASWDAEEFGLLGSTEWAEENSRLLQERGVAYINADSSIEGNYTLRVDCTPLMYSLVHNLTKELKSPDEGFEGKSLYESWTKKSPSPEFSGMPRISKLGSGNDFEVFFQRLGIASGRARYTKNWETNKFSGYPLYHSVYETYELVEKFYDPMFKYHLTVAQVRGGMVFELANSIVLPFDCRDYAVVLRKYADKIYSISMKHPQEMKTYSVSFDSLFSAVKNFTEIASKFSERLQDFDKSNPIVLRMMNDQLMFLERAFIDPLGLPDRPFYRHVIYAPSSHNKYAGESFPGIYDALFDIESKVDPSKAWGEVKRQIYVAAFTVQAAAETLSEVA
- Assay Remarks: cell-based or functional assay
Measurement Type: pHrodo Green internalization assay, human PSMA Average EC50 (M)
One number for each entry, in M.

# annotated cases, reported pHrodo Green internalization assay, human PSMA Average EC50 (M) shown
single VH domain antibody 2.13 (VHH, Human single VH domain antibody (Humabody); C-terminal His tag, residues not tied) VHH: EVQLVESGGGVVQPGRSLRLSCAASGFSFSGYGLHWVRQAPGKGLEWVAYISYDASNKYYADNVKGRFTISRDNSKNTLYLQMNSLRAEDTAVYYCAKDPAWGLRLGESSSYDFDIWGQGTMVTVSS : 5.8e-10
single VH domain antibody 1.18 (VHH, Human single VH domain antibody (Humabody)) VHH: EVQLLESGGGLVQPGGSLRLSCAASGFSFSSYALSWVRQAPGKGLEWVSSIGENNATTDYAASVKGRFTISRDNSKNTLYLQMNSLRVEDTAVYYCVKDGVHWGQGTLVTVSS : 3.1e-10
single VH domain antibody 2.22 (VHH, Human single VH domain antibody (Humabody); C-terminal His tag, residues not tied) VHH: EVQLVESGGGVVQPGRSLRLSCAASGFSFSGYGTHWVRQAPGKGLEWVAYISYDGSNKYYAAPVKGRFTISRDNSKNTLYLQMNSLRAEDTAVYYCAKDAAWGLRLGESSSYDFDIWGQGTMVTVSS : 6.7e-10

Hello, I would appreciate it if you could give pHrodo Green internalization assay, human PSMA Average EC50 (M) for each entry below.
1. single VH domain antibody 1.10 (VHH, Human single VH domain antibody (Humabody)) VHH: EVQLLESGGGLVQPGGSLRLSCAASGFSFSSYALSWVRQAPGKGLEWVSSIGENNATTDYADFVKGRFTISRDNSKNTLYLQMNSLRVEDTAVYYCVKDGVHWGQGTLVTVSS
2. single VH domain antibody 1.11 (VHH, Human single VH domain antibody (Humabody)) VHH: EVQLLESGGGLVQPGGSLRLSCAASGFSFSSYALSWVRQAPGKGLEWVSSIGENNDTTDYADNVKGRFTISRDNSKNTLYLQMNSLRVEDTAVYYCVKDGVHWGQGTLVTVSS
3. single VH domain antibody 2.17 (VHH, Human single VH domain antibody (Humabody); C-terminal His tag, residues not tied) VHH: EVQLVESGGGVVQPGRSLRLSCAASGFSFSGYGMHWVRQAPGKGLEWVAYISYDASNKYYADNVKGRFTISRDNSKNTLYLQMNSLRAEDTAVYYCAKDPAWGLRLGESSSYDFDIWGQGTMVTVSS

["6.4e-10", "3.7e-10", "8e-10"]
